testName: NCI Yeast Anticancer Drug Screen. Data for the cln2 rad14 strain (AID 165);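 further: 0% = growth equal to vehicle treated cultures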
conditionNotes: S. cerevisiae cln2 rad14 strain, at 50.0 µM, active compounds read high
Compounds without any hit were thinned out: in the full panel of roughly 79,000, 15% have a hit.
metricName: growth inhibition (%)

| compound | metricName | experimentalValue |
| --- | --- | --- |
| Cn1c2ccccc2c(=O)c2cc(NC(=O)CCCCCCCC(=O)Nc3ccc4c(c3)c(=O)c3ccccc3n4C)ccc21 | growth inhibition | -12.6 |
| CCOC(NC(C)=O)C(O)c1ccc(Cl)cc1 (stereo unspecified) | growth inhibition | -41.5 |
| O=C(CCl)Nc1ccc(O)c2ccccc12 | growth inhibition | 9.95 |
| CCOc1cccc(N)c1 | growth inhibition | -51 |
| O=C(Nc1ccc(Cl)cc1)Nc1nnc2nc(CC(=O)c3cccc([N+](=O)[O-])c3Cl)c(=O)[nH]n12 | growth inhibition | -0.4 |
| CC1OC(n2ccc(NC(=O)c3ccc(NC(=O)C(C)(N)CO)cc3)nc2=O)CCC1OC1OC(C)C(N(C)C)C(O)C1O (stereo unspecified) | growth inhibition | 6 |
| Cc1ccc2c(ccc3nnc(C)n32)c1 | growth inhibition | -2.95 |
| CCCC1SCC(C)(C)NC1=O (stereo unspecified) | growth inhibition | -18.4 |
| CN(C)C1CS(=O)(=O)C1c1ccccc1 (stereo unspecified) | growth inhibition | -19.5 |
| CCCCn1c2nc3ccccc3c-2nc2cc(OC)c(OC)cc21 | growth inhibition | 5.5 |
| COc1cc(C(C#N)NNC(=O)c2ccccc2O)ccc1O (stereo unspecified) | growth inhibition | 17.6 |

* * *

# reported growth inhibition; entries follow
testName: NCI Yeast Anticancer Drug Screen. Data for the sgs1 mgt1 strain (AID 161);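 further: 0% = growth of cultures given vehicle only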
conditionNotes: S. cerevisiae sgs1 mgt1 strain, at 50.0 µM, active compounds read high
The panel holds about 79,000 compounds, 15% with a hit somewhere; the sample as a whole holds those more often. *1 amine or outer side, *2 acyl side, *3 side chain or, on linkers, in order; H or OH if unused. Where a SMILES comes first, the peptide text is derived from it. [ ]: non-standard residue; d: D form. X12 = NC(N)=NCC(O)CC(N[*:1])C(=O)[*:2]; Orn = NCCC[CH](N)C(=O)O

| compound | growth inhibition [%] |
| --- | --- |
| C/C=C/c1ccc2oc(-c3ccc(OC4OC(C)C(O)C(O)C4O)cc3)c(C)c2c1 (configuration not stated) | 99.2 |
| N#CC1(N=Cc2ccc3c(c2)OCO3)c2ccccc2-c2ccccc21 | 5.8 |
| CN1C(=O)NC(C)(C)C1=O | -1.75 |
| CC1CCCc2c1c1ccc3c(O)cccc3c1oc2=O (configuration not stated) | -15.4 |
| O=C(CBr)c1cc(-c2ccc(Cl)cc2)nc2c(-c3ccccc3)cccc12 | 27.6 |
| O=C(/C=C\c1ccccc1)OCc1ccccc1CN1CCCCC1 | 17.2 |
| N#CC1=C(O)/C(=C\C=C\c2ccccc2)N(C(=O)c2ccccc2)C1=N | -6.2 |
| N#C/C(=C\c1ccc[nH]1)C(=O)c1ccccc1 | -18.9 |
| CC(O)C(NC(=O)C(CCCN)NC(=O)C(CC(O)CN=C(N)N)NC(=O)C(N)CCCN=C(N)N)C(=O)NC(CCCN)C(=O)NC(CC(O)CN=C(N)N)C(=O)NC(Cc1ccc(O)cc1)C(=O)O (configuration not stated) (tested in a mixture with another compound) (H-R[X12][Orn]T[Orn][X12]Y-OH; configuration not given here) | 19.5 |
| Cc1cc(N=Nc2ccc(C(=O)O)cc2)c(N)cc1N | -7.1 |
| CSc1cc2c(cc1[N+](=O)[O-])C(=O)c1ccccc1-2 | 0.8 |
| CC(C)(O)C(C)(O)C#CC(C)(O)C(C)(C)O (configuration not stated) | 1.3 |
| O=C(CN1C(=O)c2ccccc2C1=O)OCC(=O)c1ccccc1 | 1.5 |
| O=C(O)CCSC1=NCCN1 | -26.1 |
| C/C(=N\N=C\N(C)S(=O)(=O)c1ccc(C)cc1)c1ccccc1 | -6.3 |
| CNc1ccc(C(=O)NC(CCC(=O)O)C(=O)O)cc1I (configuration not stated) | -4.1 |
| CCCCCCCCn1nnnc1N | 1.45 |
| OCc1ccc2ccc3ccc(CO)nc3c2n1 | 5.6 |
| CCOC(=O)c1ccc(NC(=O)CNC2CCCCC2)cc1 | -3.2 |
| CCCCCCP(=O)(CCCCCC)C1CCCCC1 | 99.3 |
| CCOC(=O)c1ccc(NC(=O)c2cccc(Cl)c2)cc1 | -4.25 |
| CC1(OC(=O)Nc2ccccc2)CCCCC1 | 0.9 |

All values here come from PubChem BioAssay (NCI).
